All values here come from the supplement of paper PMC8975748.

- System: Saccharomyces cerevisiae BY4741 SeMeCo community
- EXPERIMENT NOTES: z-score of subpopulation abundance vs DMSO median, subpopulation auxotrophic for HUM; higher = larger share of this subpopulation than in DMSO controls
- CONDITION PARAMETERS: 10 µM; 24 h; SM minimal medium; subpopulation (auxotrophy): HUM
Structures can show the parent of a compound that is named as a salt.
PROPERTY NAME: z-score of subpopulation abundance
Numbers only.

As a guide, the following entries are already answered.
Cc1c(OCC(F)(F)F)ccnc1C[S@@+]([O-])c1nc2ccccc2[nH]1 :: -0.66
CN(C)[C@@H]1C(=O)C(C(N)=O)=C(O)[C@@]2(O)C(=O)C3=C(O)c4c(O)ccc(Cl)c4[C@@H](O)[C@H]3C[C@@H]12 [Demeclocycline HCl] :: -1
CNCCCN1c2ccccc2CCc2ccccc21 [Desipramine Hydrochloride] :: 0.16
COc1cc(NS(=O)(=O)c2ccc(N)cc2)nc(OC)n1 [SulfadiMethoxine sodium] :: -0.22
CCCCCNC(=N)N/N=C/c1c[nH]c2ccc(OC)cc12 [Tegaserod Maleate] :: 0.89
CCn1cc(C(=O)O)c(=O)c2cc(F)c(N3CCNCC3)nc21 [Enoxacin] :: -0.01
NCc1ccccc1CC(=O)N[C@@H]1C(=O)N2C(C(=O)O)=C(CSc3nnnn3CC(=O)O)CS[C@H]12 [Ceforanide] :: 0.56

Ask: Look up Saccharomyces cerevisiae BY4741 SeMeCo community data: z-score of subpopulation abundance of Cc1c(-c2ccc(O)cc2)n(Cc2ccc(OCCN3CCCCCC3)cc2)c2ccc(O)cc12 [Bazedoxifene HCl] , then report it.
Reply: -0.15

----------
- Test system: Saccharomyces cerevisiae BY4741 SeMeCo community
- EXPERIMENT NOTES: z-score of subpopulation abundance vs DMSO median, subpopulation auxotrophic for H; higher = larger share of this subpopulation than in DMSO controls
- CONDITION PARAMETERS: 10 µM; 24 h; SM minimal medium; subpopulation (auxotrophy): H
PROPERTY NAME: z-score of subpopulation abundance
Answers are plain numbers.

Examples with their reported z-score of subpopulation abundance follow.
O=c1[nH]c(=O)n([C@H]2C[C@H](O)[C@@H](CO)O2)cc1I [Idoxuridine] :: -0.48
CCOC(=O)C1=C(C)NC(C)=C(C(=O)OCC)C1c1ccccc1/C=C/C(=O)OC(C)(C)C [Lacidipine] :: 1.2
CCC(C)C1OC2(CCC1C)CC1CC(CC=C(C)C(OC3CC(OC)C(OC4CC(OC)C(O)C(C)O4)C(C)O3)C(C)C=CC=C3COC4C(O)C(C)=CC(C(=O)O1)C34O)O2 (centres undefined) [Ivermectin] :: 1.41

Proceed to the following item.
Ask: Provide z-score of subpopulation abundance, tested on Saccharomyces cerevisiae BY4741 SeMeCo community, for Cc1cc(/C=C/c2ccc3cc(N(C)C)ccc3[n+]2C)c(C)n1-c1ccccc1 [pyrvinium] .
Reply: -3.04

----------
- Tested on: Saccharomyces cerevisiae BY4741 SeMeCo community
- EXPERIMENT NOTES: z-score of subpopulation abundance vs DMSO median, subpopulation auxotrophic for L; higher = larger share of this subpopulation than in DMSO controls
- CONDITION PARAMETERS: 10 µM; 24 h; SM minimal medium; subpopulation (auxotrophy): L
Where a name gives a salt, the structure may show the parent alone.
Label T when z-score of subpopulation abundance >= -0.5; otherwise F.

Example cases with answers are listed next.
COc1ccc(Cc2cnc(N)nc2N)cc1OC :: F
CC[N+](CC)(CC)CC [Tetraethylammonium bromide] :: T
CN(C)CCn1nnnc1SCC1=C(C(=O)O)N2C(=O)[C@@H](NC(=O)Cc3csc(N)n3)[C@H]2SC1 [Cefotiam hydrochloride] :: T

Would you kindly look at the next entry?
Ask: Please check the record COCCCC/C(=N\OCCN)c1ccc(C(F)(F)F)cc1 [Fluvoxamine maleate] and state if its z-score of subpopulation abundance is at or above -0.5.
Reply: T

----------
- Test system: Saccharomyces cerevisiae BY4741 SeMeCo community
- EXPERIMENT NOTES: z-score of subpopulation abundance vs DMSO median, subpopulation auxotrophic for HL; higher = larger share of this subpopulation than in DMSO controls
- CONDITION PARAMETERS: 10 µM; 24 h; SM minimal medium; subpopulation (auxotrophy): HL
Counter-ions that a name gives are not always drawn.
Short version: z-score of subpopulation abundance at least 0.1 is Y, less is N.

Example entries and their recorded answers appear below.
Nc1nc(O)c2ncn(CCC(CO)CO)c2n1 :: N
O=C(c1ccc(OCCN2CCCCC2)cc1)c1c(-c2ccc(O)cc2)sc2cc(O)ccc12 [Raloxifene HCl] :: Y
O=c1c(-c2ccc(O)cc2)coc2c([C@@H]3O[C@H](CO)[C@@H](O)[C@H](O)[C@H]3O)c(O)ccc12 :: Y
Cc1nc(NC(=O)N2CCC[C@H]2C(N)=O)sc1-c1ccnc(C(C)(C)C(F)(F)F)c1 :: N

Ask: Does the reported z-score of subpopulation abundance for CN(C)CCN1C(=O)c2cccc3cc(N)cc(c23)C1=O [Amonafide] fall at or above the 0.1 mark?
Reply: N

Ask: Answer whether z-score of subpopulation abundance of `C[C@H](Nc1ncnc2nc[nH]c12)c1cc2cccc(Cl)c2c(=O)n1-c1ccccc1` is greater than or equal to 0.1.
Reply: Y

Ask: Given the entry `CCC1(c2ccccc2)C(=O)NCNC1=O` , answer whether its z-score of subpopulation abundance meets or surpasses 0.1.
Reply: N

Ask: Is reported z-score of subpopulation abundance greater than or equal to 0.1 here: `Nc1ccc(S(=O)(=O)Nc2nccs2)cc1`
Reply: N

----------
Assignment: determine reported z-score of subpopulation abundance for the given compounds.
- System: Saccharomyces cerevisiae BY4741 SeMeCo community
- EXPERIMENT NOTES: z-score of subpopulation abundance vs DMSO median, subpopulation auxotrophic for LUM; higher = larger share of this subpopulation than in DMSO controls
- CONDITION PARAMETERS: 10 µM; 24 h; SM minimal medium; subpopulation (auxotrophy): LUM
Counter-ions that a name gives are not always drawn.
Answers are plain numbers.

CN(C)CCOc1ccc(/C(=C(/CCCl)c2ccccc2)c2ccccc2)cc1 [Toremifene Citrate] :: 0.81

Each compound below has a recorded value; state its z-score of subpopulation abundance.
1. COc1cccc2c1C(=O)c1c(O)c3c(c(O)c1C2=O)C[C@@](O)(C(=O)CO)C[C@@H]3O[C@H]1C[C@H](N)[C@H](O[C@@H]2CCCCO2)[C@H](C)O1
2. CN(C)CCc1c[nH]c2ccc(C[C@H]3COC(=O)N3)cc12

Reply:
1. -0.26
2. -0.64

Please give z-score of subpopulation abundance, item by item, for the list that follows.
1. C=C1c2cccc(O)c2C(O)=C2C(=O)[C@]3(O)C(O)=C(C(N)=O)C(=O)[C@@H](N(C)C)[C@@H]3[C@@H](O)[C@H]12 [Methacycline HCl]
2. CC[N+](CC)(CC)CCOc1cccc(OCC[N+](CC)(CC)CC)c1OCC[N+](CC)(CC)CC [Gallamine Triethiodide]
3. O=c1ccc2cc(O)c(O)cc2o1
4. C[C@]12CC[C@@H]3c4ccc(O)cc4C[C@@H](CCCCCCCCC[S+]([O-])CCCC(F)(F)C(F)(F)F)[C@H]3[C@@H]1CC[C@@H]2O (stereo not given in full)

Reply:
1. -0.23
2. -0.03
3. -3.61
4. 1.7

Please report z-score of subpopulation abundance for every entry that follows.
1. Cn1c(=O)c2c(ncn2CC(O)CO)n(C)c1=O (stereo not given)
2. COc1cc(O)c(C(=O)Nc2nc(C(=O)NCCN(C(C)C)C(C)C)cs2)cc1OC [Acotiamide]

Reply:
[-1.44, 1.3]

----------
- Tested on: Saccharomyces cerevisiae BY4741 SeMeCo community
- EXPERIMENT NOTES: z-score of subpopulation abundance vs DMSO median, subpopulation auxotrophic for U; higher = larger share of this subpopulation than in DMSO controls
- CONDITION PARAMETERS: 10 µM; 24 h; SM minimal medium; subpopulation (auxotrophy): U
Counter-ions that a name gives are not always drawn.
PROPERTY NAME: z-score of subpopulation abundance
Answers are plain numbers.

O=C(c1ccccc1)c1ccc2n1CCC2C(=O)O (stereo unspecified) [Ketorolac tromethamine salt] :: -0.92
O=C(Cn1cnnn1)N[C@@H]1C(=O)N2C(C(=O)O)=C(CSc3nncs3)CS[C@H]12 [Ceftezole] :: 0.9
CCc1cccc2c3c([nH]c12)C(CC)(CC(=O)O)OCC3 (stereo unspecified) [Etodolac] :: 0.62

State the recorded z-score of subpopulation abundance for every item in the following list.
1. O=C(O)CCC(=O)OC[C@@H](NC(=O)C(Cl)Cl)[C@H](O)c1ccc([N+](=O)[O-])cc1 [Chloramphenicol sodium succinate]
2. Cc1cccc(N(C)C(=S)Oc2ccc3ccccc3c2)c1 [Tolnaftate]

Reply:
1. -0.91
2. -0.32

Give measured z-score of subpopulation abundance for every item shown.
1. CC(C(=O)O)c1ccc2c(c1)CC(=O)c1ccccc1S2 (stereo unspecified) [Zaltoprofen]
2. CC1(C)CC[C@]2(C(=O)O)CC[C@]3(C)C(=CC[C@@H]4[C@@]5(C)CC[C@H](O)C(C)(C)[C@@H]5CC[C@]43C)[C@@H]2C1 [Oleanolic Acid]
3. CCOc1ccc2ccccc2c1C(=O)N[C@@H]1C(=O)N2[C@@H]1SC(C)(C)[C@@H]2C(=O)O [Nafcillin Sodium]
4. CCCc1nn(C)c2c(=O)[nH]c(-c3cc(S(=O)(=O)N4CCN(C)CC4)ccc3OCC)nc12 [Sildenafil Mesylate]
5. Nc1ccc2cc3ccc(N)cc3nc2c1 [Proflavine Hemisulfate]
6. Oc1ccc([C@H]2COc3cc(O)ccc3C2)cc1 [Equol]
7. C#C[C@]1(O)CC[C@H]2[C@@H]3CCc4cc(OC)ccc4[C@H]3CC[C@@]21C [Mestranol]
8. CO[C@H]1C[C@@H]2CC[C@@H](C)[C@@](O)(O2)C(=O)C(=O)N2CCCC[C@H]2C(=O)O[C@H]([C@H](C)C[C@@H]2CC[C@H](n3cnnn3)[C@H](OC)C2)CC(=O)[C@H](C)/C=C(\C)[C@@H](O)[C@@H](OC)C(=O)[C@H](C)C[C@H](C)/C=C/C=C/C=C/1C [Zotarolimus(ABT-578)]

Reply:
1: 0.2; 2: -0.6; 3: -0.63; 4: 1.64; 5: -8.08; 6: -0.12; 7: -0.41; 8: 3.68

For each entry beneath this line, provide reported z-score of subpopulation abundance.
1. CO/N=C(\C(=O)N[C@@H]1C(=O)N2C(C(=O)O)=C(CSc3nc(C)c(CC(=O)O)s3)CS[C@H]12)c1csc(N)n1 [Cefodizime Sodium]
2. CN1C(C(=O)Nc2ccccn2)=C(O)c2ccccc2S1(=O)=O [Piroxicam]
3. NC(=O)Cc1cccc(C(=O)c2ccccc2)c1N [Nepafenac]

Reply:
[0.88, -0.17, -1.24]
